For each entry below, report its HepSE_elevated liver function tests value.
Response field accepts a number only; no unit should be typed.

Entry NC(=O)N1c2ccccc2CC(=O)c2ccccc21 [OXCARBAZEPINE] , tested on Hepatotoxicity, has a reported HepSE_elevated liver function tests of 0

Entry [N]=O [NITRIC OXIDE] , tested on Hepatotoxicity, has a reported HepSE_elevated liver function tests of 0

Entry COc1ccc2[nH]c([S+]([O-])Cc3ncc(C)c(OC)c3C)nc2c1 (stereo not given) [OMEPRAZOLE] , tested on Hepatotoxicity, has a reported HepSE_elevated liver function tests of 0

Entry O=P(O)(O)C(Sc1ccc(Cl)cc1)P(=O)(O)O [TILUDRONIC ACID] , tested on Hepatotoxicity, has a reported HepSE_elevated liver function tests of 0

Entry CN(C)c1ccc(O)c2c1C[C@H]1C[C@H]3[C@H](N(C)C)C(O)=C(C(N)=O)C(=O)[C@@]3(O)C(O)=C1C2=O [MINOCYCLINE] , tested on Hepatotoxicity, has a reported HepSE_elevated liver function tests of 0

====

For each entry below, report its HepSE_hepatic failure value.
Response field accepts a number only; no unit should be typed.

Entry CC(C)(C)NC(=O)[C@@H]1CN(Cc2cccnc2)CCN1C[C@@H](O)C[C@@H](Cc1ccccc1)C(=O)N[C@H]1c2ccccc2C[C@H]1O.O , tested on Hepatotoxicity, has a reported HepSE_hepatic failure of 1

Entry CC(C)Nc1cccnc1N1CCN(C(=O)c2cc3cc(NS(C)(=O)=O)ccc3[nH]2)CC1 [DELAVIRDINE] , tested on Hepatotoxicity, has a reported HepSE_hepatic failure of 1

Entry CC(C)(C)NCC(O)COc1cccc2c1CCC(=O)N2 (stereo not drawn) [CARTEOLOL] , tested on Hepatotoxicity, has a reported HepSE_hepatic failure of 0

Entry CS(=O)(=O)OCCCCOS(C)(=O)=O [BUSULFAN] , tested on Hepatotoxicity, has a reported HepSE_hepatic failure of 0

Entry CN1CCC(=C2c3ccccc3CC(=O)c3sccc32)CC1 [KETOTIFEN] , tested on Hepatotoxicity, has a reported HepSE_hepatic failure of 0

Entry O=C1CC[C@@]2(O)[C@H]3Cc4ccc(O)c5c4[C@@]2(CCN3CC2CC2)[C@H]1O5 [NALTREXONE] , tested on Hepatotoxicity, has a reported HepSE_hepatic failure of 0

Entry CC(=O)O[C@]1(C(C)=O)CC[C@H]2[C@@H]3C=C(C)C4=CC(=O)CC[C@]4(C)[C@H]3CC[C@@]21C [MEGESTROL ACETATE] , tested on Hepatotoxicity, has a reported HepSE_hepatic failure of 0

Entry CCCCCN(C)CCC(O)(P(=O)(O)O)P(=O)(O)O [IBANDRONIC ACID] , tested on Hepatotoxicity, has a reported HepSE_hepatic failure of 0

====

Observed HepSE_hepatomegaly values for Hepatotoxicity are listed in what follows.
Where a SMILES comes first, the peptide text is derived from it. Bridges are numbered along the chain shown (N, C = ends). [ ]: non-standard residue; d: D form. hArg = N=C(N)NCCCC[C@H](N)C(=O)O; Mpa = O=C(O)CCS

// HepSE_hepatomegaly lookup, compound = CC(C)Nc1cccnc1N1CCN(C(=O)c2cc3cc(NS(C)(=O)=O)ccc3[nH]2)CC1 [DELAVIRDINE] , result: 1

// HepSE_hepatomegaly lookup, compound = Nc1ccn([C@@H]2O[C@H](CO)[C@@H](O)C2(F)F)c(=O)n1 [GEMCITABINE] , result: 0

// HepSE_hepatomegaly lookup, compound = N=C(N)NCCCC[C@@H]1NC(=O)CCSSC[C@@H](C(N)=O)NC(=O)[C@@H]2CCCN2C(=O)[C@H](Cc2c[nH]c3ccccc23)NC(=O)[C@H](CC(=O)O)NC(=O)CNC1=O [EPTIFIBATIDE] ([Mpa][hArg]GDWPC-NH2; disulfide 1-7) , result: 0

// HepSE_hepatomegaly lookup, compound = CC[C@@H]([C@H](C)O)n1ncn(-c2ccc(N3CCN(c4ccc(OC[C@@H]5CO[C@@](Cn6cncn6)(c6ccc(F)cc6F)C5)cc4)CC3)cc2)c1=O [POSACONAZOLE] , result: 1

// HepSE_hepatomegaly lookup, compound = Cc1nnc2n1-c1ccc(Cl)cc1C(c1ccccc1Cl)=NC2 [TRIAZOLAM] , result: 0

// HepSE_hepatomegaly lookup, compound = Oc1c(Cl)cc(Cl)c(Cl)c1Cc1c(O)c(Cl)cc(Cl)c1Cl [HEXACHLOROPHENE] , result: 0

// HepSE_hepatomegaly lookup, compound = Nc1nc(=O)[nH]cc1F [FLUCYTOSINE] , result: 0

====

- Tested on: Hepatotoxicity
- Experimental Conditions: Liver
For each entry below, report its HepSE_cholecystitis value.
Response field accepts a number only; no unit should be typed.

Entry CC(C)c1cccc(C(C)C)c1O , tested on Hepatotoxicity, has a reported HepSE_cholecystitis of 0

Entry NC(N)=Nc1nc(CSCCC(N)=NS(N)(=O)=O)cs1 , tested on Hepatotoxicity, has a reported HepSE_cholecystitis of 0

Entry CC1=C(C(=O)O)N2C(=O)[C@@H](NC(=O)[C@H](N)c3ccccc3)[C@H]2SC1 [CEPHALEXIN ANHYDROUS] , tested on Hepatotoxicity, has a reported HepSE_cholecystitis of 0

Entry Clc1ccccc1CN1CCc2sccc2C1 , tested on Hepatotoxicity, has a reported HepSE_cholecystitis of 0

Entry COc1ccc2cc([C@H](C)C(=O)O)ccc2c1 , tested on Hepatotoxicity, has a reported HepSE_cholecystitis of 1

Entry Clc1cccc(Cl)c1N=C1NCCN1 , tested on Hepatotoxicity, has a reported HepSE_cholecystitis of 0

Entry CC(=O)[O-].[Na+] [SODIUM ACETATE] , tested on Hepatotoxicity, has a reported HepSE_cholecystitis of 0

Entry CNCCC=C1c2ccccc2CCc2ccccc21 , tested on Hepatotoxicity, has a reported HepSE_cholecystitis of 0

Entry CCCCc1oc2ccccc2c1C(=O)c1cc(I)c(OCCN(CC)CC)c(I)c1 , tested on Hepatotoxicity, has a reported HepSE_cholecystitis of 0

Entry CC1=C(/C=C/C(C)=C/C=C/C(C)=C/CO)C(C)(C)CCC1 , tested on Hepatotoxicity, has a reported HepSE_cholecystitis of 0

Entry CC(C)NCC(O)c1ccc(O)c(O)c1 (centres undefined) , tested on Hepatotoxicity, has a reported HepSE_cholecystitis of 0

Entry CN1[C@@H]2CC[C@H]1C[C@@H](OC(=O)C(CO)c1ccccc1)C2 (some centres undefined) , tested on Hepatotoxicity, has a reported HepSE_cholecystitis of 0

Entry CN1[C@@H]2C[C@@H](OC(=O)[C@H](CO)c3ccccc3)C[C@H]1[C@@H]1O[C@@H]12 , tested on Hepatotoxicity, has a reported HepSE_cholecystitis of 0

Entry Nc1ccn([C@H]2CC[C@@H](CO)O2)c(=O)n1 , tested on Hepatotoxicity, has a reported HepSE_cholecystitis of 1

Entry Sc1ncnc2nc[nH]c12 [MERCAPTOPURINE ANHYDROUS] , tested on Hepatotoxicity, has a reported HepSE_cholecystitis of 0

Entry CC(C)NCC(O)COc1ccc(CCOCC2CC2)cc1 (centres undefined) , tested on Hepatotoxicity, has a reported HepSE_cholecystitis of 0

Entry CC(C)(C(=O)c1cccnc1)c1cccnc1 , tested on Hepatotoxicity, has a reported HepSE_cholecystitis of 0

Entry CN1CCCCC1CCN1c2ccccc2Sc2ccc([S+](C)[O-])cc21 (centres undefined) , tested on Hepatotoxicity, has a reported HepSE_cholecystitis of 0

Entry [H]/N=C(/N)N[C@H]1[C@H](O)[C@@H](O)[C@H](O[C@@H]2O[C@@H](C)[C@](O)(C=O)[C@H]2O[C@@H]2O[C@@H](CO)[C@H](O)[C@@H](O)[C@@H]2NC)[C@@H](N/C(N)=N\[H])[C@@H]1O , tested on Hepatotoxicity, has a reported HepSE_cholecystitis of 0

====

- System: Hepatotoxicity
- Experimental Conditions: Liver
Quantity: HepSE_liver disease
Response field accepts a number only; no unit should be typed.

// HepSE_liver disease lookup, compound = CN(C)C(=N)N=C(N)N [METFORMIN] , result: 0

// HepSE_liver disease lookup, compound = CCc1cc(C(N)=S)ccn1 [ETHIONAMIDE] , result: 0

// HepSE_liver disease lookup, compound = CN1C(=O)CN=C(c2ccccc2)c2cc(Cl)ccc21 [DIAZEPAM] , result: 0

// HepSE_liver disease lookup, compound = NCCc1ccc(O)c(O)c1 [DOPAMINE] , result: 0

// HepSE_liver disease lookup, compound = CC(C[N+](C)(C)C)OC(N)=O (stereo not drawn) [BETHANECHOL] , result: 0

// HepSE_liver disease lookup, compound = CCCN[C@H]1CCc2nc(N)sc2C1 [PRAMIPEXOLE] , result: 0

// HepSE_liver disease lookup, compound = NC(CO)(CO)CO [TROMETHAMINE] , result: 0

// HepSE_liver disease lookup, compound = COc1ccc2cc([C@H](C)C(=O)O)ccc2c1 [NAPROXEN] , result: 0

// HepSE_liver disease lookup, compound = COC(=O)[C@H](c1ccccc1Cl)N1CCc2sccc2C1 [CLOPIDOGREL] , result: 0

// HepSE_liver disease lookup, compound = CC(C)n1c(/C=C/C(O)CC(O)CC(=O)O)c(-c2ccc(F)cc2)c2ccccc21 (stereo not drawn) [FLUVASTATIN] , result: 0

// HepSE_liver disease lookup, compound = CC(=O)O [ACETIC ACID] , result: 0

// HepSE_liver disease lookup, compound = CNCCCC12CCC(c3ccccc31)c1ccccc12 [MAPROTILINE] , result: 0

// HepSE_liver disease lookup, compound = COc1cc(Cc2cnc(N)nc2N)cc(OC)c1OC [TRIMETHOPRIM] , result: 0

// HepSE_liver disease lookup, compound = CN(C)CCC=C1c2ccccc2C=Cc2ccccc21 [CYCLOBENZAPRINE] , result: 0

// HepSE_liver disease lookup, compound = Brc1c(NC2=NCCN2)ccc2nccnc12 [BRIMONIDINE] , result: 0

// HepSE_liver disease lookup, compound = O=C(O)CN(CCN(CC(=O)O)CC(=O)O)CC(=O)O [EDETIC ACID] , result: 0

// HepSE_liver disease lookup, compound = CC(C)(C(=O)O)c1ccc(C(O)CCCN2CCC(C(O)(c3ccccc3)c3ccccc3)CC2)cc1 (stereo not drawn) [FEXOFENADINE] , result: 0

// HepSE_liver disease lookup, compound = OC(Cn1cncn1)(Cn1cncn1)c1ccc(F)cc1F [FLUCONAZOLE] , result: 0

// HepSE_liver disease lookup, compound = CCCNCC(O)COc1ccccc1C(=O)CCc1ccccc1 (stereo not drawn) [PROPAFENONE] , result: 0

// HepSE_liver disease lookup, compound = CNCCCN1c2ccccc2CCc2ccccc21 [DESIPRAMINE] , result: 0

// HepSE_liver disease lookup, compound = CN1CCC[C@H]1c1cccnc1 [NICOTINE] , result: 0

// HepSE_liver disease lookup, compound = CCn1cc(C(=O)O)c(=O)c2cc(F)c(N3CCNCC3)cc21 [NORFLOXACIN] , result: 0

// HepSE_liver disease lookup, compound = O=C(O)c1cc(-c2ccc(F)cc2F)ccc1O [DIFLUNISAL] , result: 0
